// reported kon for each item listed
- ASSAYED TARGET: T1, cynomolgus monkey IL-17A (cynomolgus monkey, UniProt A0A2K5TTB0 24-155)
- T1 construct: biotinylated in the ELISA; also called cyno IL-17; Cyno IL-17A
- T1 sequence (A0A2K5TTB0 entry or part of it): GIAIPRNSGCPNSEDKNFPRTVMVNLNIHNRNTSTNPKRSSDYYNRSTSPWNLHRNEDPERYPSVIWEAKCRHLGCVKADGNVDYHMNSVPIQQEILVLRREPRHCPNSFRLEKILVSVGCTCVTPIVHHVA
- ASSAY: SPR (Biacore 3000), antibody captured by anti-Fc, antigen in solution;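 also: purified recombinant IL-17 antigens flowed over captured antibodies in HBS-EP buffer, global Langmuir one-to-one fit of association and dissociation phases, KD derived from koff over kon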
Be sure to follow the number with its unit.

| BINDER | MEASUREMENT |
| --- | --- |
| IL17-h10F7.6 (antibody, V domains shown, IgG; constant regions not specified; also called h10F7.6 (VH.1a-Vk.1a)) VH: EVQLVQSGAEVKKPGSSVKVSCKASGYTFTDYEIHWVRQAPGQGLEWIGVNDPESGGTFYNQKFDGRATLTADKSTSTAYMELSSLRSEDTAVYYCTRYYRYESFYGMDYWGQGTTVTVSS VL: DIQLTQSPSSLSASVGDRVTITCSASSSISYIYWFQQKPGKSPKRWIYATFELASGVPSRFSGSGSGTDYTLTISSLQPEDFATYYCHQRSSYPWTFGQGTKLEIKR | 711000 M⁻¹ s⁻¹ |
| IL17-h5C5.21 (antibody, V domains shown, IgG; constant regions not specified; also called h5C5.21 (VH.1b-Vk.3c)) VH: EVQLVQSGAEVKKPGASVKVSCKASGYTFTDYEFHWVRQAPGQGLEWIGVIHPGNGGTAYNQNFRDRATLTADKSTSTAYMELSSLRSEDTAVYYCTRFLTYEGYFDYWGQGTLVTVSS VL: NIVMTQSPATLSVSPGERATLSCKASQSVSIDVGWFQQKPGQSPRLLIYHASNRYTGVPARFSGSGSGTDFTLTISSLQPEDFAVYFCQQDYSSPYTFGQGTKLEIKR | 591000 M⁻¹ s⁻¹ |

Could you now consider this next binder?
Requested read-out: kon. Entry: IL17-h5C5.8 (antibody, V domains shown, IgG; constant regions not specified; also called h5C5.8 (VH.1-Vk.1a)) VH: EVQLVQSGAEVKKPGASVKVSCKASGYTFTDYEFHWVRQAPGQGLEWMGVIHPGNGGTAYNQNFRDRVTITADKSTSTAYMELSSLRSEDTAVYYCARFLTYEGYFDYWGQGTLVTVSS VL: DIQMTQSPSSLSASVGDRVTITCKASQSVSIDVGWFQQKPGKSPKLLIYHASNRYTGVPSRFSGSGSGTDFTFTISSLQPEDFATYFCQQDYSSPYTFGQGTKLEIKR
1.04e+06 M⁻¹ s⁻¹

All values here come from patent US20140348834A1.
